Each recorded value in this set is attributed to patent US20100256402A1.

experiment: Stability after storing different forms of Tigecycline at 80° C. for 7 days; type: physicochemical; details: ambient conditions (before storage); listed as WO 2007/127792 II
attribute measured: Total impurities ambient conditions (%)

[[record]]
chemical_string = "CN(C)c1cc(NC(=O)CNC(C)(C)C)c(O)c2c1C[C@H]1C[C@H]3[C@H](N(C)C)C(O)=C(C(N)=O)C(=O)[C@@]3(O)C(O)=C1C2=O"
attribute_measured = "Total impurities ambient conditions"
observed = 0.24


* * *

experiment: Stability after storing different forms of Tigecycline at 80° C. for 7 days; format: physicochemical; conditions: after storing 7 days at 80° C.; listed as WO 2007/127792 I
attribute measured: 4-Epi-Tigecycline 7 days at 80° C. (%)

[[record]]
compound = "CN(C)c1cc(NC(=O)CNC(C)(C)C)c(O)c2c1C[C@H]1C[C@H]3[C@H](N(C)C)C(O)=C(C(N)=O)C(=O)[C@@]3(O)C(O)=C1C2=O [WO 2007/127292 I, Tigecycline]"
observed = 1.26


* * *

assay: Stability after storing different forms of Tigecycline at 80° C. for 7 days; assay type: physicochemical; conditions: after storing 7 days at 80° C.
attribute measured: Total impurities 7 days at 80° C. (%)

[[record]]
molecule = "CN(C)c1cc(NC(=O)CNC(C)(C)C)c(O)c2c1C[C@H]1C[C@H]3[C@H](N(C)C)C(O)=C(C(N)=O)C(=O)[C@@]3(O)C(O)=C1C2=O [X, Tigecycline]"
attribute_measured = "Total impurities 7 days at 80° C."
observed = 3.48

[[record]]
molecule = "CN(C)c1cc(NC(=O)CNC(C)(C)C)c(O)c2c1C[C@H]1C[C@H]3[C@H](N(C)C)C(O)=C(C(N)=O)C(=O)[C@@]3(O)C(O)=C1C2=O [WO 2006/128150 V, Tigecycline]"
attribute_measured = "Total impurities 7 days at 80° C."
observed = 0.37

[[record]]
molecule = "CN(C)c1cc(NC(=O)CNC(C)(C)C)c(O)c2c1C[C@H]1C[C@H]3[C@H](N(C)C)C(O)=C(C(N)=O)C(=O)[C@@]3(O)C(O)=C1C2=O [WO 2006/128150 IV, Tigecycline]"
attribute_measured = "Total impurities 7 days at 80° C."
observed = 0.87


* * *

assay: Water content and hygroscopicity, open storage for 24 hours at 80% relative humidity; assay type: physicochemical; settings: ambient conditions
attribute measured: water content [%] ambient conditions (%)

[[record]]
molecule = "CN(C)c1cc(NC(=O)CNC(C)(C)C)c(O)c2c1C[C@H]1C[C@H]3[C@H](N(C)C)C(O)=C(C(N)=O)C(=O)[C@@]3(O)C(O)=C1C2=O [WO 2007/127292 I, Tigecycline]"
observed = 0.13

[[record]]
molecule = "CN(C)c1cc(NC(=O)CNC(C)(C)C)c(O)c2c1C[C@H]1C[C@H]3[C@H](N(C)C)C(O)=C(C(N)=O)C(=O)[C@@]3(O)C(O)=C1C2=O [WO 2006/128150 IV, Tigecycline]"
observed = 2.90

[[record]]
molecule = "CN(C)c1cc(NC(=O)CNC(C)(C)C)c(O)c2c1C[C@H]1C[C@H]3[C@H](N(C)C)C(O)=C(C(N)=O)C(=O)[C@@]3(O)C(O)=C1C2=O [X, Tigecycline]"
observed = 0.29

[[record]]
molecule = "CN(C)c1cc(NC(=O)CNC(C)(C)C)c(O)c2c1C[C@H]1C[C@H]3[C@H](N(C)C)C(O)=C(C(N)=O)C(=O)[C@@]3(O)C(O)=C1C2=O [WO 2006/128150 III, Tigecycline]"
observed = 0.69

[[record]]
molecule = "CN(C)c1cc(NC(=O)CNC(C)(C)C)c(O)c2c1C[C@H]1C[C@H]3[C@H](N(C)C)C(O)=C(C(N)=O)C(=O)[C@@]3(O)C(O)=C1C2=O [WO 2007/127292 II, Tigecycline]"
observed = 0.18

[[record]]
molecule = "CN(C)c1cc(NC(=O)CNC(C)(C)C)c(O)c2c1C[C@H]1C[C@H]3[C@H](N(C)C)C(O)=C(C(N)=O)C(=O)[C@@]3(O)C(O)=C1C2=O [WO 2006/128150 V, Tigecycline]"
observed = 0.19

